tested.target: human GLP-1 receptor (human, UniProt P43220 24-463)
procedure.summary: cell-based or functional assay
Square brackets hold non-standard residues; d marks the D form. Ends that are not written are not given here. Aib = CC(C)(N)C(=O)O
endpoint.name: hGLP1R cAMP Rel EC50
Please make sure the unit comes right after the number.

{"binder": "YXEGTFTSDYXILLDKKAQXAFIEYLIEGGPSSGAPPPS (Aib2; D-Ser11; K17((2-[2-(2-Amino-ethoxy)-ethoxy]-acetyl)2-(γ-Glu)-CO-(CH2)18-CO2H); Aib20; C-terminal NH2) [Example 81]", "hGLP1R cAMP Rel EC50": "1290 pM"}
{"binder": "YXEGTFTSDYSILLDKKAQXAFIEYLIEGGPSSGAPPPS (Aib2; K17((2-[2-(2-Amino-ethoxy)-ethoxy]-acetyl)-(ϵK)-(ϵK)-CO-(CH2)18-CO2H); Aib20; C-terminal NH2) [Example 114]", "hGLP1R cAMP Rel EC50": "267 pM"}
{"binder": "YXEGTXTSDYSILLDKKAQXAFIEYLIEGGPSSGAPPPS (Aib2; αMeF6; K17((2-[2-(2-Amino-ethoxy)-ethoxy]-acetyl)2-(γ-Glu)-CO-(CH2)18-CO2H); Aib20; C-terminal NH2) [Example 57]", "hGLP1R cAMP Rel EC50": "66.8 pM"}
{"binder": "Y[Aib]EGTFTSDYSILLDKIAQ[Aib]AFIKYLIEGGPSSGAPPPS-NH2 (not fully specified (residue 24)) [Example 34]", "hGLP1R cAMP Rel EC50": "1560 pM"}
{"binder": "YXEGTFTSDYSIXLDKKAQXAFIEYXIEGGPSSGAPPPS (not fully specified; Aib2; αMeF13 as printed (likely αMeL13); K17((2-[2-(2-Amino-ethoxy)-ethoxy]-acetyl)2-(γ-Glu)-CO-(CH2)18-CO2H); Aib20; αMeF26 as printed (likely αMeL26); C-terminal NH2) [Example 75]", "hGLP1R cAMP Rel EC50": "1490 pM"}

Lab note: next binder to report on.
INPUT: For the binder YXEGTXTSDYSILLDKKAQXAFIEYLIEGG (Aib2; αMeF6; K17((2-[2-(2-Amino-ethoxy)-ethoxy]-acetyl)2-(γ-Glu)-CO-(CH2)18-CO2H); Aib20; C-terminal NH2) [Example 98] , what hGLP1R cAMP Rel EC50 is on record?
OUTPUT: 157 pM
